Could you please report measured IM (%) dosing recommendation for the items listed next?
tested on: CYP2D6; details: human
Give bare numbers, in %.

Field: example entries. Status: answers known.
compound: CNCCC(Oc1ccc(C(F)(F)F)cc1)c1ccccc1 (stereo not shown)
target_or_test_system: CYP2D6
IM (%) dosing recommendation: 94
//
compound: O=c1[nH]c2ccccc2n1C1CCN(CCCC(c2ccc(F)cc2)c2ccc(F)cc2)CC1 [pimozide]
target_or_test_system: CYP2D6
IM (%) dosing recommendation: 99
//
compound: COc1ccc2c(c1)N(C[C@H](C)CN(C)C)c1ccccc1S2
target_or_test_system: CYP2D6
IM (%) dosing recommendation: 100
//
compound: CNCCCN1c2ccccc2CCc2ccccc21
target_or_test_system: CYP2D6
IM (%) dosing recommendation: 83
//
compound: CN1CCN(C2=Nc3cc(Cl)ccc3Nc3ccccc32)CC1
target_or_test_system: CYP2D6
IM (%) dosing recommendation: 104
//
compound: O=c1n(CCCN2CCN(c3cccc(Cl)c3)CC2)nc2ccccn12
target_or_test_system: CYP2D6
IM (%) dosing recommendation: 93
//
compound: CN(C)CCCC1(c2ccc(F)cc2)OCc2cc(C#N)ccc21 (stereo not shown)
target_or_test_system: CYP2D6
IM (%) dosing recommendation: 100
//
compound: OCCN1CCN(CC/C=C2/c3ccccc3Sc3ccc(Cl)cc32)CC1
target_or_test_system: CYP2D6
IM (%) dosing recommendation: 90

Kindly give each listed record's IM (%) dosing recommendation.
1. CN(C)CCC=C1c2ccccc2CCc2ccccc21
2. CNCCCC12CCC(c3ccccc31)c1ccccc12

RESULT:
[92, 82]

====

system: CYP2D6; settings: human
measured_endpoint: EM (%) dosing recommendation
One number for each entry, in %.

The following compounds have reported results that may help.
compound: CNCCCN1c2ccccc2CCc2ccccc21
unit_string: %
EM (%) dosing recommendation: 125
--
compound: CN1CCN2c3ccccc3Cc3ccccc3C2C1 (centres unmarked)
unit_string: %
EM (%) dosing recommendation: 114
--
compound: CN(C)CCC=C1c2ccccc2COc2ccccc21 [doxepin]
unit_string: %
EM (%) dosing recommendation: 127

For every item in the list below, what is its measured EM (%) dosing recommendation?
1. CN(C)CCC=C1c2ccccc2CCc2ccccc21
2. O=C(NCCN1CCOCC1)c1ccc(Cl)cc1 [moclobemide]
3. O=c1[nH]c2ccccc2n1C1CCN(CCCC(c2ccc(F)cc2)c2ccc(F)cc2)CC1 [pimozide]
4. CCc1nn(CCCN2CCN(c3cccc(Cl)c3)CC2)c(=O)n1CCOc1ccccc1
5. CC(CN(C)C)CN1c2ccccc2CCc2ccccc21 (centres unmarked)
6. CN1CCN(CCCN2c3ccccc3Sc3ccccc32)CC1
7. CN[C@H]1CC[C@@H](c2ccc(Cl)c(Cl)c2)c2ccccc21

RESULT:
111
92
102
105
131
110
100

====

Please provide measured 2 al (effect of 2 non-functional alleles) for the entries that follow.
tested on: CYP2C9; assay: dosing recommendation per CYP2C9 metabolizer subgroup as percentage of usual population dose (Equations 4-6); design: species or system human; conditions: CYP2C9
One number for each entry.

Previously resolved entries follow.
molecule: Cc1ccc(-c2cc(C(F)(F)F)nn2-c2ccc(S(N)(=O)=O)cc2)cc1 [Celebrex]
observed_result: 0.65
--
molecule: CCC1=C(C)CN(C(=O)NCCc2ccc(S(=O)(=O)NC(=O)N[C@H]3CC[C@H](C)CC3)cc2)C1=O [Amaryl]
observed_result: 0.83
--
molecule: CC(C)n1c(/C=C/[C@@H](O)C[C@@H](O)CC(=O)O)c(-c2ccc(F)cc2)c2ccccc21 (racemic) [Lescol]
observed_result: 0.65
--
molecule: O=C1NC(=O)C(c2ccccc2)(c2ccccc2)N1 [Dilantin]
observed_result: 0.64

Provide each entry's 2 al (effect of 2 non-functional alleles) from the list below.
1. CCCCc1nc(Cl)c(CO)n1Cc1ccc(-c2ccccc2-c2nn[nH]n2)cc1 [Cozaar]
2. CCCNC(=O)NS(=O)(=O)c1ccc(Cl)cc1 [Diabinese]
3. CC(=O)CC(c1ccccc1)c1c(O)c2ccccc2oc1=O (stereo not shown) [Coumadin]

RESULT:
1: 0.80; 2: 0.83; 3: 0.85

====

system: CYP2D6; details: CYP2D6; ratio of the two effects
measured_endpoint: 2 al/1 al
Answers are plain numbers.

Please review the following examples before continuing.
compound: OCCN1CCN(CCCN2c3ccccc3Sc3ccc(Cl)cc32)CC1
target_or_test_system: CYP2D6
2 al/1 al: 2.00

compound: COc1ccc(C(CN(C)C)C2(O)CCCCC2)cc1 (stereo not shown)
target_or_test_system: CYP2D6
2 al/1 al: 1.78

compound: Fc1ccc([C@@H]2CCNC[C@H]2COc2ccc3c(c2)OCO3)cc1
target_or_test_system: CYP2D6
2 al/1 al: 2.00

# context switch: different compound, same 2 al/1 al
QUERY: Identify the reported 2 al/1 al for the following entry. O=C1CCc2ccc(OCCCCN3CCN(c4cccc(Cl)c4Cl)CC3)cc2N1
RESULT: 2.05

====

system: CYP2C9; assay: dosing recommendation per CYP2C9 metabolizer subgroup as percentage of usual population dose (Equations 4-6); design: species or system human; details: CYP2C9; ratio of the two effects
measured_endpoint: 2 al/1 al
Answers are plain numbers.

A selection of reference data follows.
molecule: CCC1=C(C)CN(C(=O)NCCc2ccc(S(=O)(=O)NC(=O)N[C@H]3CC[C@H](C)CC3)cc2)C1=O
observed_result: 2.00

molecule: O=C1NC(=O)C(c2ccccc2)(c2ccccc2)N1 [Dilantin]
observed_result: 1.75

molecule: CC(=O)CC(c1ccccc1)c1c(O)c2ccccc2oc1=O (stereo not shown)
observed_result: 1.38

molecule: CC(C)n1c(/C=C/[C@@H](O)C[C@@H](O)CC(=O)O)c(-c2ccc(F)cc2)c2ccccc21 (racemic)
observed_result: 3.25

molecule: CCCNC(=O)NS(=O)(=O)c1ccc(Cl)cc1
observed_result: 1.43

molecule: Cc1ccc(-c2cc(C(F)(F)F)nn2-c2ccc(S(N)(=O)=O)cc2)cc1
observed_result: 2.17

QUERY: Lab note: record 2 al/1 al of CCCCc1nc(Cl)c(CO)n1Cc1ccc(-c2ccccc2-c2nn[nH]n2)cc1 tested on CYP2C9.
RESULT: 1.60

====

tested on: CYP2D6; conditions: human
measured_endpoint: 2 al/1 al
Answers are plain numbers.

Some compounds with known 2 al/1 al results, for comparison:
compound: O=c1n(CCCN2CCN(c3cccc(Cl)c3)CC2)nc2ccccn12
target_or_test_system: CYP2D6
measured_endpoint: 2 al/1 al
observed_result: 2.00

compound: CN1CCN(CCCN2c3ccccc3Sc3ccccc32)CC1
target_or_test_system: CYP2D6
measured_endpoint: 2 al/1 al
observed_result: 1.26

compound: CNCCC=C1c2ccccc2CCc2ccccc21
target_or_test_system: CYP2D6
measured_endpoint: 2 al/1 al
observed_result: 2.87

compound: CN(C)CCC=C1c2ccccc2CCc2ccccc21
target_or_test_system: CYP2D6
measured_endpoint: 2 al/1 al
observed_result: 2.00

QUERY: Please give measured 2 al/1 al of the following entry: CC(CN(C)C)CN1c2ccccc2CCc2ccccc21 (centres unmarked)
RESULT: 2.35

====

tested on: CYP2D6; conditions: CYP2D6 extensive metabolizers; percent of usual dose
measured_endpoint: EM (%) dosing recommendation
For clarity, give the value followed by its unit.

Answered cases to consult:
compound: Fc1ccc([C@@H]2CCNC[C@H]2COc2ccc3c(c2)OCO3)cc1 [paroxetine]
EM (%) dosing recommendation: 114%
--
compound: O=C1CCc2ccc(OCCCCN3CCN(c4cccc(Cl)c4Cl)CC3)cc2N1 [aripiprazole]
EM (%) dosing recommendation: 113%

// each compound listed below needs its EM (%) dosing recommendation
1. OCCN1CCN(CCCN2c3ccccc3Sc3ccc(Cl)cc32)CC1 [perphenazine]
2. COc1ccc(C(CN(C)C)C2(O)CCCCC2)cc1 (stereo not shown) [venlafaxine]

RESULT:
129%
109%

====

system: CYP2D6; conditions: CYP2D6; (DREM%-DRPM%)/DREM%
Kindly supply the reported 2 al (effect of 2 non-functional alleles) values for the records listed here.
Numbers only.

Use these answered entries as a reference point.
compound: Fc1ccc([C@@H]2CCNC[C@H]2COc2ccc3c(c2)OCO3)cc1
observed_result: 0.42
//
compound: COc1ccc(C(CN(C)C)C2(O)CCCCC2)cc1 (stereo not shown)
observed_result: 0.38
//
compound: O=C1CCc2ccc(OCCCCN3CCN(c4cccc(Cl)c4Cl)CC3)cc2N1
observed_result: 0.38

Continue with the compound presented below.
QUERY: // fetch 2 al (effect of 2 non-functional alleles) given entry OCCN1CCN(CCCN2c3ccccc3Sc3ccc(Cl)cc32)CC1
RESULT: 0.76

====

tested on: CYP2C19; assay: dosing recommendation per CYP2C19 metabolizer subgroup as percentage of usual population dose (Equations 4-6); conditions: human
IM (%) dosing recommendation below 90% gives False; IM (%) dosing recommendation at or above it gives True.

# count of solved cases: 5
compound: CN(C)CCCC1(c2ccc(F)cc2)OCc2cc(C#N)ccc21 (stereo not drawn)
qualitative_label: False
//
compound: CNCCCC12CCC(c3ccccc31)c1ccccc12
qualitative_label: True
//
compound: CC(CN(C)C)CN1c2ccccc2CCc2ccccc21 (stereo not drawn)
qualitative_label: False
//
compound: CN1CCN2c3ccccc3Cc3ccccc3C2C1 (stereo not drawn)
qualitative_label: True
//
compound: CN(C)CCCN1c2ccccc2CCc2ccc(Cl)cc21
qualitative_label: False

QUERY: Quick check: does O=C(NCCN1CCOCC1)c1ccc(Cl)cc1 [moclobemide] have IM (%) dosing recommendation greater than or equal to 90%?
RESULT: False
